- target: UniProt:Q29010
- assay_protocol: The compound was tested for binding inhibitory activity against Endothelin A receptor from porcine aortic smooth muscle membranes.
Assign labels as follows, please: criterion met for IC50 max below 0.2 µM; criterion not met for IC50 max equal to or exceeding 0.2 µM.

>  <molecule>
CC(C)C[C@@H]1NC(=O)[C@@H](c2ccccc2)NC(=O)[C@@H]2CCCN2C(=O)[C@@H](CC(=O)O)NC(=O)[C@@H](Cc2c[nH]c3ccccc23)NC1=O (single isomer, unassigned)

>  <cat>
criterion met

$$$$
>  <molecule>
CC(C)C[C@@H]1NC(=O)[C@@H](C(C)C)NC(=O)CN(C)C(=O)[C@@H](CC(=O)O)NC(=O)[C@@H](Cc2c[nH]c3ccccc23)NC1=O (single isomer, unassigned)

>  <cat>
criterion met

$$$$

For this molecule, is IC50 max lower than 0.2 µM? CCC[C@H]1NC(=O)[C@@H]2CCCN2C(=O)[C@@H](CC(=O)O)NC(=O)[C@@H](Cc2c[nH]c3ccccc23)NC(=O)[C@H](CC(C)C)NC1=O (single isomer, unassigned) criterion met

Strictly below 0.2 µM in IC50 max? CC(C)C[C@@H]1NC(=O)[C@@H](C(C)C)NC(=O)[C@H](CO)NC(=O)[C@@H](CC(=O)O)NC(=O)[C@@H](Cc2c[nH]c3ccccc23)NC1=O (single isomer, unassigned) criterion met

Does CC(C)C[C@@H]1NC(=O)[C@@H](C(C)C)NC(=O)[C@H](C)NC(=O)[C@@H](CCC(=O)O)NC(=O)[C@@H](Cc2c[nH]c3ccccc23)NC1=O (single isomer, unassigned) have IC50 max strictly under 0.2 µM? criterion not met

###

- target: Endothelin-1 receptor (Sus scrofa)
- assay_protocol: Inhibitory effect against porcine ET-A receptor
endpoint_name: pIC50
Convention used: pIC50 is expressed as -log10 of the molar concentration.

>  <compound>
CC(C)C[C@@H]1NC(=O)[C@@H](C2CCCC2)NC(=O)[C@@H]2CCCN2C(=O)[C@@H](CC(=O)O)NC(=O)[C@@H](Cc2c[nH]c3ccccc23)NC1=O (single isomer, unassigned)

>  <pIC50>
8.40

$$$$

Please give the documented pIC50 of CC(C)C[C@@H]1NC(=O)[C@@H](c2cccs2)NC(=O)[C@@H]2CCCN2C(=O)[C@@H](CC(=O)O)NC(=O)[C@@H](Cc2c[nH]c3ccccc23)NC1=O (single isomer, unassigned) 8.52

###

IC50 max values for the compounds below.
- target: Endothelin-1 receptor (Sus scrofa)
- assay_protocol: The compound was tested for binding inhibitory activity against Endothelin A receptor from porcine aortic smooth muscle membranes.
Express the result in nM but write the number alone.

>  <compound>
CC(C)C[C@@H]1NC(=O)[C@@H](C(C)C)NC(=O)[C@H](CCC(=O)O)NC(=O)[C@@H](CC(=O)O)NC(=O)[C@@H](Cc2c[nH]c3ccccc23)NC1=O (single isomer, unassigned)

>  <IC50 max [nM]>
140

$$$$

// moving on: another record for IC50 max
Tell me its IC50 max given CC(C)C[C@@H]1NC(=O)[C@@H](C2=CCC=CC2)NC(=O)[C@@H]2CCCN2C(=O)[C@@H](CC(=O)O)NC(=O)[C@@H](Cc2c[nH]c3ccccc23)NC1=O (single isomer, unassigned) as the entry. 19

###

- target: Endothelin-1 receptor (Sus scrofa, UniProt Q29010)
- Sequence (Q29010 whole entry): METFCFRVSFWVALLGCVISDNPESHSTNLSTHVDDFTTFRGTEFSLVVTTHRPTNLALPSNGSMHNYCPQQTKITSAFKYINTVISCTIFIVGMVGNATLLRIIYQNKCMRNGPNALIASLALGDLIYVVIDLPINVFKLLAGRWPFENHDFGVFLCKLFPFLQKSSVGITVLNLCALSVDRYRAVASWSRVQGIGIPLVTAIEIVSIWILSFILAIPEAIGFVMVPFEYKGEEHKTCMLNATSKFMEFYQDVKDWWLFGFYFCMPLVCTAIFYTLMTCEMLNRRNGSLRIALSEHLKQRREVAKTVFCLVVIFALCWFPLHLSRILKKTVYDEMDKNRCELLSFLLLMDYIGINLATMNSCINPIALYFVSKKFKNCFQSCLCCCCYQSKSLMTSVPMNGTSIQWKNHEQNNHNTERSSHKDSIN
- assay_protocol: The compound was tested for binding inhibitory activity against Endothelin A receptor from porcine aortic smooth muscle membranes.
endpoint_name: IC50 max (nM)
Answer with a number only, understood to be in nM.

Give reported IC50 max for CC(C)C[C@@H]1NC(=O)[C@@H](C(C)C)NC(=O)[C@H](CCCN)NC(=O)[C@@H](CC(=O)O)NC(=O)[C@@H](Cc2c[nH]c3ccccc23)NC1=O (single isomer, unassigned) (Endothelin-1 receptor (Sus scrofa, UniProt Q29010)) 250

Using Endothelin-1 receptor (Sus scrofa, UniProt Q29010) as the test system, report measured IC50 max of "CC(C)C[C@@H]1NC(=O)[C@@H](C(C)C)NC(=O)[C@@H]2CCCCN2C(=O)[C@@H](CC(=O)O)NC(=O)[C@@H](Cc2c[nH]c3ccccc23)NC1=O" . 13

Report IC50 max on Endothelin-1 receptor (Sus scrofa, UniProt Q29010) for this entry: "CC[C@@H](C)[C@H]1NC(=O)[C@@H]2CCCN2C(=O)[C@@H](CC(=O)O)NC(=O)[C@@H](Cc2c[nH]c3ccccc23)NC(=O)[C@H](CC(C)C)NC1=O" 64

###

- target: Endothelin-1 receptor (Sus scrofa)
- assay_protocol: The compound was tested for binding inhibitory activity against Endothelin A receptor from porcine aortic smooth muscle membranes.
endpoint_name: IC50 max (nM)
Express the result in nM but write the number alone.

Take a look at these entries with their results.
>  <compound>
COC(=O)C[C@H]1NC(=O)[C@@H](Cc2c[nH]c3ccccc23)NC(=O)[C@H](CC(C)C)NC(=O)[C@@H](C(C)C)NC(=O)[C@@H]2CCCN2C1=O (single isomer, unassigned)

>  <target>
Endothelin-1 receptor (Sus scrofa)

>  <value_units>
nM

>  <IC50 max>
390

$$$$
>  <compound>
CC(C)C[C@@H]1NC(=O)[C@@H](C(C)C)NC(=O)[C@@H]2CSCN2C(=O)[C@@H](CC(=O)O)NC(=O)[C@@H](Cc2c[nH]c3ccccc23)NC1=O (single isomer, unassigned)

>  <target>
Endothelin-1 receptor (Sus scrofa)

>  <value_units>
nM

>  <IC50 max>
20

$$$$
>  <compound>
CC(C)C[C@@H]1NC(=O)[C@@H](C(C)C)NC(=O)[C@H](CCC(N)=O)NC(=O)[C@@H](CC(=O)O)NC(=O)[C@@H](Cc2c[nH]c3ccccc23)NC1=O (single isomer, unassigned)

>  <target>
Endothelin-1 receptor (Sus scrofa)

>  <value_units>
nM

>  <IC50 max>
160

$$$$

Let us move to another entry and its IC50 max.
Give the observed IC50 max of CC(C)C[C@@H]1NC(=O)[C@@H](C(C)C)NC(=O)[C@@H]2CCCN2C(=O)[C@@H](CC(=O)O)NC(=O)[C@@H](Cc2cn(C(=O)OC(C)(C)C)c3ccccc23)NC1=O (single isomer, unassigned) for Endothelin-1 receptor (Sus scrofa). 1500

###

- target: UniProtKB Q29010
- assay_protocol: The compound was tested for binding inhibitory activity against Endothelin A receptor from porcine aortic smooth muscle membranes.
endpoint_name: IC50 max (nM)
Your answer should be a plain number; it is taken to be in nM.

>  <compound>
CC(C)C[C@@H]1NC(=O)CNC(=O)[C@H](CO)NC(=O)[C@@H](CC(=O)O)NC(=O)[C@@H](Cc2c[nH]c3ccccc23)NC1=O (single isomer, unassigned)

>  <target>
UniProtKB Q29010

>  <value_units>
nM

>  <IC50 max>
35000

$$$$
>  <compound>
CC(C)C[C@@H]1NC(=O)[C@@H](c2cccs2)NC(=O)[C@@H]2CCCN2C(=O)[C@@H](CC(=O)O)NC(=O)[C@@H](Cc2c[nH]c3ccccc23)NC1=O (single isomer, unassigned)

>  <target>
UniProtKB Q29010

>  <value_units>
nM

>  <IC50 max>
3

$$$$

Now, please, on to the next compound.
Find the measured IC50 max of CC(C)C[C@@H]1NC(=O)[C@@H](C(C)C)NC(=O)[C@H](CS(=O)(=O)O)NC(=O)[C@@H](CC(=O)O)NC(=O)[C@@H](Cc2c[nH]c3ccccc23)NC1=O (single isomer, unassigned) with UniProtKB Q29010 as test system. 140

###

- target: Endothelin receptor type B (Sus scrofa)
- Sequence (P35463 whole entry): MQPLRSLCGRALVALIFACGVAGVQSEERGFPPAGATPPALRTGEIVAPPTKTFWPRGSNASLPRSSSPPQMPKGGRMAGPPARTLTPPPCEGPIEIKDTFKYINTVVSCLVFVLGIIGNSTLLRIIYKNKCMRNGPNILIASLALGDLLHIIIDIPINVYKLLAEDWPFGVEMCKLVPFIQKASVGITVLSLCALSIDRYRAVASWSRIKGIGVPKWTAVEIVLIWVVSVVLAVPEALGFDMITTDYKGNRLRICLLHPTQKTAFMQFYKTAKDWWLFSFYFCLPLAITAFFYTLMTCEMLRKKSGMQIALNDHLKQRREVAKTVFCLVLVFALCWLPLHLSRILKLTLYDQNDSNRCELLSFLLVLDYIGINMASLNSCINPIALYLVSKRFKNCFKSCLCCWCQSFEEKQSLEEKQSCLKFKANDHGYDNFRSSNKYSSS
endpoint_name: pIC50
The meaning of pIC50 here: minus log10 of the concentration in molar units.

Please tell me the measured pIC50 for CC(C)C[C@@H]1NC(=O)[C@@H](C2CCCC2)NC(=O)[C@@H]2CCCN2C(=O)[C@@H](CC(=O)O)NC(=O)[C@@H](Cc2c[nH]c3ccccc23)NC1=O (single isomer, unassigned) ; system: Endothelin receptor type B (Sus scrofa). 5.32
